- subject_of_test: Voltage-gated potassium channel subunit beta-2 (Rattus norvegicus)
- protocol_notes: retested enhancers of rat Kvbeta2 activity – biochemical, confirmation (AID 634)
- condition_context: Rat Kvbeta2 enzymatic assay, slope read-out
Calls of active or inactive are those of the source. The rule behind the calls is not given here.
// classify into active, inactive

Q. Which outcome was entered for the compound O=C(NCCC1=CCCCC1)N[C@@H](Cc1ccccc1)C(=O)O in this test?
A. inactive

Q. Each compound tested received a call. Report the one for NS(=O)(=O)c1cc2c(cc1Cl)NC=NS2(=O)=O .
A. inactive

Q. Test call for this compound, please: CN1C(=S)SC(C)(NO)C1(C)C (stereo unspecified)
A. active

Q. Lab log entry: O=C(NCc1cccs1)C(Cc1ccccc1)NS(=O)(=O)c1cccs1 (stereo unspecified) — outcome as called in the assay?
A. inactive

Q. Just curious, what result did CC(O)CNc1nc2c(c(=O)n(C)c(=O)n2C)n1CCc1ccccc1 (stereo unspecified) get here?
A. inactive

Q. What did this assay record as the result for O=C(C1=C(O)C(=O)N(CCCN2CCOCC2)C1c1ccccn1)c1cc2ccccc2o1 (stereo unspecified) ?
A. inactive

Q. What classification did COc1cccc(Oc2ccc(N)cc2)c1 end up with in this test?
A. inactive

Q. Any idea what this test logged for CC(c1ccco1)N(C(=O)c1ccc(S(=O)(=O)N2CCCCC2)cc1)c1ccccn1 (stereo unspecified) ?
A. inactive

Q. Test call for this compound, please: COc1ccccc1C1/C(=C(/O)c2ccc(OC(C)C)cc2)C(=O)C(=O)N1c1cc(C)on1 (stereo unspecified)
A. inactive

Q. Fill in: this test's call for O=c1c2ccccc2[se]n1-c1ccccc1 is ___
A. active

Q. GET /call?item= C=CCn1c(SCC(=O)NCC2CCCO2)nc2scc(-c3ccco3)c2c1=O (stereo unspecified) returns the recorded outcome of this test.
A. inactive

---

- subject_of_test: Voltage-gated potassium channel subunit beta-2 (Rattus norvegicus) (UniProt P62483)
- Sequence (P62483 whole entry, looked up): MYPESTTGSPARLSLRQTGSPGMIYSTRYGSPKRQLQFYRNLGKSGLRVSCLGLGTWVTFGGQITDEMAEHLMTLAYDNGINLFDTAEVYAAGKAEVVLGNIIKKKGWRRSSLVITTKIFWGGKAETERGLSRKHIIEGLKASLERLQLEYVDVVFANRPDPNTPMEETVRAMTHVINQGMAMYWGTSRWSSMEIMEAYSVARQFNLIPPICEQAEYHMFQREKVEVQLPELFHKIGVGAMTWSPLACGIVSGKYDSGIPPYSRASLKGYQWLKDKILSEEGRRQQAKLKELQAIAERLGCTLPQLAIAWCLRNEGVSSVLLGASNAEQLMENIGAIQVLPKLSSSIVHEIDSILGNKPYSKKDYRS
- protocol_notes: retested enhancers of rat Kvbeta2 activity – biochemical, confirmation (AID 634)
- condition_context: Rat Kvbeta2 enzymatic assay, slope read-out; active compounds read low
slope strictly less than 0.05 = criterion met. Otherwise criterion not met.

Q. # TODO verify slope < 0.05 strictly for this compound: Cc1ccc2c(c1)[C@@H]1CN(C)CC[C@@H]1N2C(=O)Nc1cccc(C(F)(F)F)c1
A. criterion met

Q. Does the reported slope of CCCCCC#CCC#CCC#CCC#CCCCC(=O)O stay below 0.05?
A. criterion met

Q. Bench note: check whether CCOc1ccccc1Nc1nc2ccccc2[nH]1 shows slope below 0.05
A. criterion met

Q. Lab log: compare recorded slope with 0.05; is it strictly lower for CCOC(=O)C1=C(N)OC(C)=C(C(=O)OCCOC)C12C(=O)Nc1ccccc12 (stereo unspecified) ?
A. criterion not met

Q. Does the reported slope of the following compound sit strictly below 0.05? CCOC(=O)CNC(=O)Nc1ccccc1C(=O)OC
A. criterion not met

Q. Say whether its slope is strictly beneath 0.05. Entry: CCN(CC)CCCn1c(=S)[nH]c2cc(Cl)ccc2c1=O
A. criterion not met

Q. Is the reported slope for CCn1cc(C(=O)Nc2cc3c(cc2NC(C)=O)OCCO3)c(=O)c2ccc(C)nc21 strictly below 0.05?
A. criterion not met

Q. Criterion: slope strictly below 0.05. Is it met by CC(=O)Oc1ccc2c(C)cc(=O)[nH]c2c1 ?
A. criterion not met

Q. Say whether its slope is strictly beneath 0.05. Entry: Cn1c(SCC(=O)Nc2ccc3c(c2)oc2ccccc23)nnc1-c1ccccc1
A. criterion not met

Q. Say whether its slope is strictly beneath 0.05. Entry: CCCCOc1ccc(-c2nnn(C(C)(C)C(=O)OC)n2)cc1
A. criterion not met
